- measuredOn: human IL-1β (Homo sapiens)
- Construct: purchased Amersham Japan
- procedureSummary: Binding activity for human IL-1: 125I-labelled human IL-1β retained on peptide-immobilized cellulose adsorbent
- testContext: radioactivity remaining on 100 mg adsorbent (1 mg peptide fixed per g cellulose) after about 300 Bq 125I-labelled human IL-1β, room temperature 3 hours, 5 washes; γ counter
Consider the following substances; for each one, report its Radioactivity (cpm).
Note: unit cpm is implicit; provide only the numeric part.

Exercise: What does the record list as Radioactivity (cpm) for H-Lys-Ile-Cys-Leu-Arg-Ile-Gln-Ile-Ser-OH (H-KICLRIQIS-OH) [Example 13] ?
Solution: 1245

Exercise: What does the record list as Radioactivity (cpm) for H-Lys-Cys-Val-Gln-Val-Gln-Val-Ser-OH (H-KCVQVQVS-OH) [Example 14] ?
Solution: 890

Exercise: What does the record list as Radioactivity (cpm) for H-Tyr-Cys-Leu-Arg-Ile-Lys-Ile-Ser-Ala-Lys-OH (H-YCLRIKISAK-OH) [Example 4] ?
Solution: 891

Exercise: What does the record list as Radioactivity (cpm) for H-Cys-Leu-Gln-Ile-Lys-Ile-Ser-OH (H-CLQIKIS-OH) [Example 8] ?
Solution: 678

====

- measuredOn: human IL-1β (Homo sapiens)
- Construct: purchased Amersham Japan
- procedureSummary: Binding activity for human IL-1: 125I-labelled human IL-1β retained on peptide-immobilized cellulose adsorbent
- testContext: radioactivity remaining on 100 mg adsorbent (1 mg peptide fixed per g cellulose) after about 300 Bq 125I-labelled human IL-1β, room temperature 3 hours, 5 washes; γ counter
measuredAttribute: Radioactivity (cpm)
Please give the number followed by its unit.

Exercise: What does the record list as Radioactivity (cpm) for H-Lys-Ile-Cys-Ile-Arg-Ile-Gln-Ile-Ser-OH (H-KICIRIQIS-OH) [Example 10] ?
Solution: 1373 cpm

Exercise: What does the record list as Radioactivity (cpm) for H-Tyr-Ser-Leu-Glu-Ile-Lys-Ile-Ser-OH (H-YSLEIKIS-OH) [Comparative Example, reference compound] ?
Solution: 84 cpm

Exercise: What does the record list as Radioactivity (cpm) for H-Val-Val-Arg-Asn-Ser-Ser-Tyr-Cys-Leu-Arg-Ile-Lys-Ile-Ser-Ala-Lys-OH (H-VVRNSSYCLRIKISAK-OH) [Example 1] ?
Solution: 922 cpm

Exercise: What does the record list as Radioactivity (cpm) for H-CLRIKIS-OH [Example 6] ?
Solution: 815 cpm

====

- measuredOn: human IL-1β (Homo sapiens, UniProt P01584)
- Construct: purchased Amersham Japan
- Sequence (P01584 117-269): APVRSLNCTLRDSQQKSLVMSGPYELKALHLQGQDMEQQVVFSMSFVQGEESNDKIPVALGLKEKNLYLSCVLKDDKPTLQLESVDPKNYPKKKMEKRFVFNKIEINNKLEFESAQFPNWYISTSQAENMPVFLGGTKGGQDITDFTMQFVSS
- procedureSummary: Binding activity for human IL-1: 125I-labelled human IL-1β retained on peptide-immobilized cellulose adsorbent
- testContext: radioactivity remaining on 100 mg adsorbent (1 mg peptide fixed per g cellulose) after about 300 Bq 125I-labelled human IL-1β, room temperature 3 hours, 5 washes; γ counter
Radioactivity (cpm) strictly less than 1000 cpm = satisfied. Otherwise not satisfied.

Exercise: Please check: Radioactivity (cpm) for H-Lys-Cys-Leu-Gln-Ile-Gln-Ile-Ser-OH (H-KCLQIQIS-OH) [Example 9] , strictly under 1000 cpm or not?
Solution: not satisfied

Exercise: Please check: Radioactivity (cpm) for H-Lys-Ile-Cys-Ile-His-Ile-Gln-Ile-Ser-OH (H-KICIHIQIS-OH) [Example 12] , strictly under 1000 cpm or not?
Solution: not satisfied

Exercise: Please check: Radioactivity (cpm) for H-Lys-Cys-Leu-Arg-Ile-Lys-Ile-Ser-OH (H-KCLRIKIS-OH) [Example 7] , strictly under 1000 cpm or not?
Solution: satisfied

Exercise: Please check: Radioactivity (cpm) for H-Lys-Ile-Cys-Ile-Arg-Ile-Gln-Ile-Ser-NH2 (H-KICIRIQIS-NH2) [Example 15] , strictly under 1000 cpm or not?
Solution: not satisfied

Exercise: Please check: Radioactivity (cpm) for H-Tyr-Cys-Leu-Arg-Ile-Lys-Ile-Ser-OH (H-YCLRIKIS-OH) [Example 5] , strictly under 1000 cpm or not?
Solution: satisfied

Exercise: Please check: Radioactivity (cpm) for H-Lys-Asn-Ser-Ser-Tyr-Cys-Leu-Arg-Ile-Lys-Ile-Ser-Ala-Lys-Phe-Val-Glu-OH (H-KNSSYCLRIKISAKFVE-OH) [Example 2] , strictly under 1000 cpm or not?
Solution: satisfied

Exercise: Please check: Radioactivity (cpm) for H-Lys-Tyr-Cys-Leu-Arg-Ile-Lys-Ile-Ser-Ala-Lys-Phe-Val-Glu-Asn-Glu-Pro-OH (H-KYCLRIKISAKFVENEP-OH) [Example 3] , strictly under 1000 cpm or not?
Solution: not satisfied
